Cited source for all entries: PubChem BioAssay (NCI)

System: TK-10 renal
Experiment: NCI tumour cell line growth inhibition, 48 h
Listing of recorded TGI by entry.
property.measured: TGI

CC(C)(C)S(=O)OC12CC3CC(CC(C3)C1)C2 (stereo not given)
> 100 µM
COc1ccc(C2=CC(c3ccc(OC)c(OC)c3)c3c(c4ccccc4oc3=O)O2)cc1OC (stereo not given)
> 100 µM
CCn1c2ccccc2c2cc(C(O)c3cccc4ncccc34)ccc21 (stereo not given)
> 78.6 µM
CCC(=O)N/N=C(\C=C\c1cccc(O)c1)c1sc(Nc2ccc(C)cc2[N+](=O)[O-])nc1C
> 100 µM
Cc1cc2c(cc1N)C(C)C1(CCC(=O)N2Cc2ccccc2)OCCO1 (stereo not given)
> 100 µM
CCN(CC)CCSCCCNc1c2ccc(Cl)cc2nc2ccc(OC)cc12
3.87 µM
S=C1N=C(Cl)/C(=C\c2ccccc2)N1
> 100 µM
CCOC(=O)c1c(N2CCCC2)[nH]c(=O)c(C(c2cccs2)c2c(O)c(C(=O)OCC)c(N3CCCC3)[nH]c2=O)c1O
> 100 µM
COC(=O)c1ccc(NCc2cc(O)ccc2O)cc1
31.6 µM
O=[N+]([O-])c1ccc(S(=O)(=O)Cc2ccccc2)c2nonc12
32 µM

* * *

Test system: SNB-19 CNS
Assay: NCI tumour cell line growth inhibition, 48 h
Reported TGI values for the following compounds.
property.measured: TGI (µM)

C=CCN1CN(c2ccccc2)C2(CCN(CCCC3(c4ccc(F)cc4)OCCO3)CC2)C1=O
39.9
Cc1ccccc1N=NC(C(=O)c1ccccc1)C(=O)c1ccccc1
85.5
COc1cc(C(=O)Oc2c(C#N)sc3c2c(=O)n(-c2ccccc2)c(=S)n3-c2ccccc2)cc(OC)c1OC
72
CC[C@@H]1/C=C/C=C/C[C@H](C)[C@@H](O)[C@](C)(O)C(=O)[C@H](C)[C@@H](O)[C@H](C)C(=O)[C@H](C)[C@@H](O)[C@H](C)/C=C/C(=O)O[C@H]2[C@@H](C)[C@@H](CC1)O[C@@]1(CC[C@@H](C)[C@@H](CC(C)O)O1)[C@@H]2C (stereo partly drawn)
19.8

* * *

Test system: CCRF-CEM leukemia
Assay: NCI tumour cell line growth inhibition, 48 h
property.measured: TGI

CN(C)CCN1C(=O)c2cccc3cccc(c23)C1=O
> 25 µM
O=C(/C=C1/Nc2ccc([N+](=O)[O-])cc2NC1O)c1cccc([N+](=O)[O-])c1 (stereo not drawn)
> 100 µM
CC(C)C(NCc1c(O)ccc2c(-c3ccccc3)cc(=O)oc12)C(=O)O (stereo not drawn)
> 100 µM
CC(=O)c1sc(=N)n(-c2c(C)cccc2C)c1C
> 100 µM
CCc1cc2c(oc3cc(C)ccc32)c(=O)n1C
> 10 µM
CCCCNC(=S)/N=C/c1c(O)c2ccccc2[nH]c1=O
> 10 µM
Cc1ncc([N+](=O)[O-])n1CCNC(=O)Cn1c([N+](=O)[O-])cnc1C
> 100 µM
O=c1oc2ccc([N+](=O)[O-])cc2c(Nc2ccc3c(c2)S(=O)(=O)c2ccccc2O3)c1[N+](=O)[O-]
> 100 µM
O=c1[nH]n(Cc2ccccc2Cl)c2ccccc12
> 100 µM
O=C(O)c1ccccc1NC(=O)C1CCCCC1
> 100 µM
Nn1c(N=Nc2c(O)[nH]c3c(Cl)cc(Cl)cc23)n[nH]c1=S
> 100 µM
COc1cc2c3c(n(CCCN=[N+]=[N-])c(=O)c2cc1OC)-c1ccc(N(C)C)cc1C3=O
> 100 µM
CC(=O)OCC(Br)C1(C)CCC(C(C)(C)Br)O1 (stereo not drawn)
> 100 µM
CC(C)(C)C1CCC2c3c([nH]c4ccccc34)C3C(=O)N(c4ccc5c(c4)C(=O)c4ccccc4C5=O)C(=O)C3C2C1 (stereo not drawn)
> 100 µM
Cc1cc(Cl)ccc1C1OC(=O)c2c1ccc1ccccc21 (stereo not drawn)
> 100 µM
N#Cc1nc(COCCOCc2ccc(F)cc2)oc1N
> 100 µM
CCN(CC)CCN(C(=O)c1ccc(F)cc1)c1ccccc1N
> 10 µM
Cc1ccccc1-n1c(C)nc(-c2ccccc2)cc1=O
> 100 µM
CN1C(=O)C2C=C3CCCCC3=CC2N(C)C1=O (stereo not drawn)
> 100 µM
Cn1c(=O)c(Oc2ccc(F)cc2F)cc2cnc(NCCS(C)(=O)=O)nc21
> 25 µM
CNC(=O)OCC1C2=C(C(=O)C(C)=C(N)C2=O)N2CC3C(N3C)C12OC (stereo not drawn)
> 100 µM
CC(C)C(NC(=O)C(Cc1ccccc1)NC(=O)[C@H]1CCC[C@H]1NC(=O)C(N)Cc1ccc(O)cc1)C(N)=O (stereo partly drawn)
> 100 µM
COc1ccc(NC2CC(C)N(C(=O)c3ccccc3)O2)cc1 (stereo not drawn)
> 10 µM

* * *

Known TGI of a selection of compounds
System: IGROV1 ovarian
Assay: NCI tumour cell line growth inhibition, 48 h
property.measured: TGI

COc1cc2c(c(OC3OC(CO)C(O)C(O)C3O)c1)C(=O)CC(c1ccc(O)cc1)O2 (configuration not stated)
> 100 µM
COC1=C2CC(C)CC(OC)C(O)C(C)/C=C(\C)C(OC(N)=O)C(OC)/C=C\C=C(/C)C(=O)NC(=C(/C=N/N3CCCCC3)C1=O)C2=O (configuration not stated)
27 µM
COCCOC(=O)C(C)=[N+]=[N-]
> 100 µM
COc1ccc(C(=O)Nc2ccc3oc(-c4ccccc4)nc3c2)cc1
> 100 µM
CC1=C(C(=O)OC(C)C)C(c2ccccc2C(F)(F)F)C(C(=O)OC(CO[N+](=O)[O-])CO[N+](=O)[O-])=C(C)N1 (configuration not stated)
25.9 µM
COc1cc(Cl)cc(-c2nn(-c3cccc(NC(=O)Nc4ccc(Cl)c(C(F)(F)F)c4)c3)cc2-c2ccncc2)c1
29.1 µM
COc1ccc(CCc2nccn2C)cc1OC
> 100 µM
CCC(=O)C(C(C)/C=C/CCSc1ccccc1)C(O)CCCCCC(=O)OC (configuration not stated)
> 100 µM
COc1cc(C(=O)Nc2cc(C(N)=O)cc(OC)c2OC)cc(NC(=O)/C=C/c2ccccc2)c1OC
> 100 µM
CN(C)Cc1cc(C(C)(C)C)cc(C2CCCCC2)c1O
34.8 µM
COC(=O)C1=CC2OC1(C)CCC2=O (configuration not stated)
> 100 µM
COC(=O)[C@@H](C)C[C@H](Cc1ccccc1)NC(=O)c1csc([C@@H](C[C@H](C(C)C)N(C)C(=O)[C@H](C)NC(=O)[C@H]2CCCCN2C)OC(C)=O)n1
> 25 µM
CC1(C)OC(=O)C=C([O-])O1.CC1(C)OC(=O)C=C([O-])O1.CC[O-].CC[O-].[Ti+4]
> 100 µM
Cc1ccc(S(=O)(=O)c2c(N)n(CCN(C)C)c3nc4ccccc4nc23)cc1
> 100 µM
Cc1cc2c(C)n(Cc3ccc(Cl)cc3Cl)nc2c(C(=O)O)c1C
> 100 µM
C/C=C(\C)C(=O)N[C@H]1C(O)C[C@]2(C)C3CC[C@@]4(C)C(CC[C@@H]4C(C)N(C)C)C3CCC2C1O (some centres not stated)
> 43.7 µM
COc1ccc(CCNCCCC2c3ccccc3-c3ccccc32)cc1OC
26.8 µM
S=C1N=C(Cl)/C(=C\c2ccccc2)N1
> 100 µM
O=C(CC1C(=O)c2ccccc2C1=C1C(=O)c2ccccc2C1=O)c1ccccc1 (configuration not stated)
> 100 µM
COC(=O)c1ccc(NCc2cc(O)ccc2O)cc1
24.5 µM
O=C(CCN1CCOCC1)C(=Cc1ccccc1)C(=O)CCN1CCOCC1
20.3 µM
C=CCCCc1ccc(C(O)CCCCCCCCCCCC)o1 (configuration not stated)
44.9 µM
COc1ccc(Nc2c3ccccc3nc3[nH]c4ccccc4c23)cc1
> 50 µM
CC(=O)c1cc(C)n2c1CS[C@@H]2c1ccccc1
> 100 µM
CCN(CC)CCN(C(=O)c1ccc(F)cc1)c1ccccc1N
> 10 µM
Cc1ccc(NC(=O)C(=O)Cc2cc[n+]([O-])cc2)cc1
> 100 µM
CCOC(OC1=C(C#N)CCCC1)C(C)[Se]c1ccccc1 (configuration not stated)
> 100 µM

* * *

System: RPMI-8226 leukemia
Experiment: NCI tumour cell line growth inhibition, 48 h
property.measured: TGI

COc1ccc(N2C(=O)CC(c3c[nH]c4ncccc34)C2=O)cc1 (stereo unspecified)
> 100 µM
CCOC(=O)C1=C(Nc2ccc(Cl)c(Cl)c2)OC/C1=N\NS(=O)(=O)c1ccc(C)cc1
64.9 µM
CCOC(=O)/C(C#N)=C/c1ccc2c(c1)CC1(C2)Cc2cc(CC)c(C(C)O)cc2C1 (stereo unspecified)
51.6 µM
O=C(O)c1ccccc1NC(=O)C1CCCCC1
> 100 µM
Cc1cc(N(CCC#N)CCC#N)ccc1C=Nc1ccc(C(=O)NN2C(=O)/C(=C/c3ccc(N(CCC#N)CCC#N)cc3)N=C2c2cc([N+](=O)[O-])ccc2Cl)cc1
> 100 µM
CC1(C)[C@H]2Cc3cc(-c4cc5c(cn4)[C@@H]4C[C@H]([C@@H]5[C@@H]5c6cc(-c7cc8c(cn7)[C@@H]7C[C@H](C8)C7(C)C)ncc6[C@@H]6C[C@H]5C6(C)C)C4(C)C)ncc3[C@@H]1C2
> 100 µM
Cc1nc2c(=O)n3c4c(cccc4c2o1)CCC3
> 100 µM
COc1cc(C(=O)Nc2cc(C(N)=O)cc(OC)c2OC)cc(NC(=O)/C=C/c2ccccc2)c1OC
> 100 µM
COc1ccc(NC2CC(C)N(C(=O)c3ccccc3)O2)cc1 (stereo unspecified)
> 10 µM
O=C1C2Nc3ccccc3SC2C(=O)N1c1ccccc1C(F)(F)F (stereo unspecified)
> 100 µM
O=C1OC(c2ccccc2)=N/C1=C\c1cccc(F)c1
50.1 µM
